# Test system: MARIMO
# Assay: cell viability relative to vehicle control; higher = less cytotoxic;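 also: after 48 h exposure read by CellTiter-Glo luminescence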
# Condition parameters: 10 µM; SRSF2 genotype: SRSF2 wt/wt
Structures can show the parent of a compound that is named as a salt.
Measure: cell viability (%)
Write the value in % as a bare number.

For orientation, consider the following solved cases.
Compound	U	Assay result
CC(/C=C/C=C(\C)C(=O)O[C@@H]1O[C@H](CO)[C@@H](O)[C@H](O)[C@H]1O)=C\C=C\C=C(C)\C=C\C=C(/C)C(=O)O[C@@H]1O[C@H](CO[C@@H]2O[C@H](CO)[C@@H](O)[C@H](O)[C@H]2O)[C@@H](O)[C@H](O)[C@H]1O [Crocin II]	%	110
CNC1CCC(N(Cc2cccc(-c3ccncc3)c2)C(=O)c2sc3ccccc3c2Cl)CC1 (stereo unspecified) [Smoothened Agonist (SAG) HCl]	%	51.4
C[C@@H]1C[C@H]2[C@@H]3CCC4=CC(=O)C=C[C@]4(C)[C@@]3(Cl)[C@@H](O)C[C@]2(C)[C@@]1(OC(=O)c1ccco1)C(=O)CCl [Mometasone furoate]	%	103

Prompt: Which cell viability value is on record for CC(C)(O)CNc1nc(Nc2ccnc(C(F)(F)F)c2)nc(-c2cccc(C(F)(F)F)n2)n1 [AG-221 (Enasidenib)] ?
Completion: 99.8

Prompt: Which cell viability value is on record for COc1c2c(cc3oc(COC4OC(CO)C(O)C(O)C4O)cc(=O)c13)OC(C(C)(C)O)C2 (stereo unspecified) [Prim-o-glucosylcimifugin] ?
Completion: 94

Prompt: Which cell viability value is on record for COc1ccc(COc2ccc(CC#N)cc2)cc1 ?
Completion: 108

###

# Tested on: K562
# Assay: cell viability relative to vehicle control; higher = less cytotoxic
# Condition parameters: 10 µM; SRSF2 genotype: SRSF2 wt/wt
Consider the following partition of reported cell viability into named classes: group 1: < 70%; group 2: ≥ 70% and < 90%; group 3: ≥ 90%

Example cases with answers are listed next.
                                   compound  target_or_system  category_label
0  Cn1cc(-c2ccc(S(=O)(=O)n3ccc(/C=C/C(=O)Nc4ccccc4N)c3)cc2)cn1              K562         group 1
1  CN(Cc1cnc2nc(N)nc(N)c2n1)c1ccc(C(=O)N[C@@H](CCC(=O)O)C(=O)O)cc1 [Abitrexate (Methotrexate)]              K562         group 1

Prompt: State the class of the compound shown: O=C1CCc2ccccc2O1 [Dihydrocoumarin]
Completion: group 3

###

# System: MOLM14
# Assay: cell viability relative to vehicle control; higher = less cytotoxic
# Condition parameters: 10 µM; SRSF2 genotype: SRSF2 wt/wt
Where a name gives a salt, the structure may show the parent alone.
Catalogue of cell viability values
Write the value in % as a bare number.

                                   molecule  u  assay_result
0    Cc1ccc(/C=N/NC(=O)c2ccccc2Oc2ccccc2)o1  %          98.7
1  COC(=O)C=Cc1ccc(O)cc1 [Methyl 4-hydroxycinnamate]  %          95.2
2  O=C(O)c1ccc(NC(=O)[C@H](Cc2ccc(O)cc2)NC(=O)c2ccccc2)cc1 [bentiromide]  %           104

Prompt: Which cell viability value is on record for C=C1C2CCC(C2)C1(C)CCC=C(C)CO (centres undefined) ?
Completion: 104

Prompt: Which cell viability value is on record for Cc1cn(CCN2CCN(c3ccccc3-c3cc(C#N)cc(C(=O)NCCCN4CCCC4)c3)CC2)c2ccccc12 ?
Completion: 0.12

Prompt: Which cell viability value is on record for CCN(CC)CCNC(=O)c1c(C)[nH]c(/C=C2\C(=O)Nc3ccc(F)cc32)c1C [Sunitinib] ?
Completion: 0.37

Prompt: Which cell viability value is on record for Nc1ncnc2c1c(-c1cccc(OCc3ccccc3)c1)cn2C1CC(CN2CCCC2)C1 (centres undefined) ?
Completion: 55.1

Prompt: Which cell viability value is on record for NCc1c[nH]c(=S)n1[C@@H]1CCc2c(F)cc(F)cc2C1 [(R)-Nepicastat HCl] ?
Completion: 101

Prompt: Which cell viability value is on record for C=C(C)[C@@H]1CCC2=CC(=O)C[C@@H](C)[C@]2(C)C1 ?
Completion: 103

src = the supplement of paper PMC10981050
